System: MS2 coat protein
protocol.description: apparent Kd, MS2 coat protein; higher = weaker binding; RNA-MaP array; FMN 200 µM where present
recorded.conditions: ligand present: flavin mononucleotide; designed as: OFF switch for flavin mononucleotide
Consider the following sequences; for each one, report its apparent Kd.
Numbers only, in nM.

The following sequences have reported results that may help.
>  <chain>
GCGGUGAUCCUAGCUCACAUGAGGAUCACCCAUGUGCAGUUCAAGGAUAUACGUUGCCGCUCCGCGUAGAAGGUGAACUCGCUA

>  <unit.of.measurement>
nM

>  <apparent Kd>
44.1

$$$$
>  <chain>
UUAUGUGUUGUAGGAUAUCAUUAGAUUUGUAAUUUAAUUGUAAUUUAUAUAUGAGAAGGACAUUUACAUGAGGAUCACCCAUGU

>  <unit.of.measurement>
nM

>  <apparent Kd>
13.4

$$$$
>  <chain>
AGAAGACAUGAGGAUCACCCAUGUAAGGAUAUUGGAGGUUAGGGAUGCUGGAGUUGGACAAGAAGGUACAGGUG

>  <unit.of.measurement>
nM

>  <apparent Kd>
50.9

$$$$

Recorded result, `UAUGUCUUUGUGAGGAUAUACUUUGUUUGGUCGUAGUAGAAGGCACAUGAGGAUCACCCAUGUAGAUUUUUGGU` , apparent Kd: 36.1

====

System: MS2 coat protein
protocol.description: apparent Kd, MS2 coat protein; higher = weaker binding; RNA-MaP array; FMN 200 µM where present
recorded.conditions: designed as: ON switch for flavin mononucleotide; no ligand
measured.quantity: apparent Kd (nM)
One number for each entry, in nM.

The following sequences have reported results that may help.
>  <chain>
GUCGGGAUUACAUGAGGAUCACCCAUGUCAGAACGGGCAGUUAGAAGGUGCCAUUAGGGAGAGGGUAAGGAUAUAAUUUUUGGC

>  <apparent Kd (nM)>
12

$$$$
>  <chain>
GAGAGAGGGUGAGGAUAUUCAGUAAUAAUGAUAGAAGAAGGCACAGACAUGAGGAUCACCCAUGUGGGAAUAAUCCAGAGAGAG

>  <apparent Kd (nM)>
182

$$$$
>  <chain>
GUGCAUACGUGAGGAUAUGUAUUAGAUAGUGGUACAGAAGGCAUGUCAGAUGACAUGAGGAUCACCCAUGUUGGCAAAAUGCGC

>  <apparent Kd (nM)>
47.5

$$$$

Quick batch: apparent Kd for everything below.
1. UUGGUUAUACAAGGAUAUCAAUUAUAUACACAUCCUACAUGAGGAUCACCCAUGUUUUAUUUUUUUGAGAAGGUGUAUUGUCGG
2. CUCAAACAUGAGGAUCACCCAUGUGUUGUCAUGGGAGGAUAUCCCAGUUCGUUGUAGUCGGGAGAAGGCCUAUGUC
3. UCAUCAAAUUGAACAUGAGGAUCACCCAUGUAGGAUUAGCCACAGGAUAUCCGUGCUAGAAUGUGGGAGAAGGGUGGUCACUCC
4. AAAAAUCCAGCGCAGGAUAUCGCAGGGUGCACAUGAGGAUCACCCAUGUGUACCCAAACACCCUGCGAGAAGGGCGUUGGAAAAAA

Result block:
[22.4, 67.4, 334, 11.2]

====

System: MS2 coat protein
protocol.description: apparent Kd, MS2 coat protein; higher = weaker binding; RNA-MaP array
recorded.conditions: designed as: OFF switch for flavin mononucleotide; no ligand
Consider the following partition of reported apparent Kd into named classes: range 1 = under 9 nM, range 2 = from 9 nM up to 100 nM, range 3 = 100 nM and over

Some solved cases for reference:
>  <chain>
GCAUAACAUGAGGAUCACCCAUGUGAGGAUAUUCCCUCCGGCAAUUGCUCCCAAGAGGGAAGAAGGCACAGUGG

>  <class.name>
range 3

$$$$
>  <chain>
GAAUGGAAACUAGGAUAUCGGCAGGAGCGGGAGCGAGAAGGAGUUUACUCGGUAUACAUGAGGAUCACCCAUGUGGGUGUGCUG

>  <class.name>
range 3

$$$$
>  <chain>
CCGAGCACAGGAUAUACAUGAGGAUCACCCAUGUAUACGAAUACGACACAUCCUGCGUGUAGAAGGGUGGCAAA

>  <class.name>
range 1

$$$$
>  <chain>
GUACAGGAGGAAGGAUAUAAUGCACAUGAGGAUCACCCAUGUAAGAGGAAAUCACCAUAACUGAUUUAGAAGGACCAGCAAAAC

>  <class.name>
range 2

$$$$
>  <chain>
GAGUACAGGGAGAAGGUGUAUUAAUACGCACGGCUGGUCACAUGAGGAUCACCCAUGUCGCAUAACAAGGAUAUCCGACUAAUC

>  <class.name>
range 3

$$$$
>  <chain>
UGUCCCACGCAAGUACAUGAGGAUCACCCAUGUCUGAACCAGAGAAGGAGAGUUAUACUGGAAAUCUAGGAUAUCUGACAGACU

>  <class.name>
range 2

$$$$
>  <chain>
CCCAUUGAGGAGGAUAUACUAUUGGAGACUCUCGUAGAAGGCCUGACAUGAGGAUCACCCAUGUACGUGAUAUC

>  <class.name>
range 3

$$$$
>  <chain>
UCUCGGUAAGGAUAUAAAGCGACUCACAUGAGGAUCACCCAUGUUGUCGUCGUGGGCACAUUAGAAGGUACCAUUC

>  <class.name>
range 1

$$$$
>  <chain>
AUUAGAAUGCGAGGAUAUGGUAAAUUCAUGCAUCCAGAAGGCGCGUCAGUAGAACAUGAGGAUCACCCAUGUGAUUGUUGUGGC

>  <class.name>
range 2

$$$$
>  <chain>
UUAGAUCGUGUCAGGAUAUCGGACCGGCCCGCCUCCGAGAAGGGACAUGAGGAUCACCCAUGUCACGGUCCAUU

>  <class.name>
range 1

$$$$

Query block: Dear colleague, I would appreciate it if you could identify the bin for `UUAUGUGACGAGGAUAUGAAAAGGAGUGGUGAAUCAGAAGGCGUAACAUGAGGAUCACCCAUGUCAGUGGGCCU` and reply at your convenience.
Result block: range 2

Query block: Dear colleague, I would appreciate it if you could identify the bin for `CUCCCAAACAAGAAGGGCGUCGAGUACGGUGAACUUGCCACAUAACAUGAGGAUCACCCAUGUACGCAGGAUAUUGGAGCGUUU` and reply at your convenience.
Result block: range 3

Query block: Dear colleague, I would appreciate it if you could identify the bin for `AUUGCCCAAGGAUAUCUAUUUAGAAACAUGAGGAUCACCCAUGUCAUAAUGUUAGGCUCAAGAGAAGGUGGAAGCU` and reply at your convenience.
Result block: range 1

Query block: Dear colleague, I would appreciate it if you could identify the bin for `CAUUAUCGCGUUAGGAUAUGAACAAGAAAUCGGCUACAGAAGGAACAUGAGGAUCACCCAUGUAUGAUCAAGAC` and reply at your convenience.
Result block: range 2

====

Test system: MS2 coat protein
protocol.description: apparent Kd, MS2 coat protein; higher = weaker binding; RNA-MaP array
recorded.conditions: designed as: OFF switch for flavin mononucleotide; no ligand
measured.quantity: apparent Kd (nM)
Give bare numbers, in nM.

The following sequences have reported results that may help.
>  <chain>
ACGUAGUGCCGAGGAUAUGUAACAUGAGGAUCACCCAUGUUCUCUAACAGGUCGAUUUUAAGCACACAGAAGGCGGGUGUUGAU

>  <value.observed>
11.3

$$$$
>  <chain>
CACAUGUAAGGAUAUAGUGAACUAAAGCAACUAGAUGUAAACUAGAAGGUACAUGAGGAUCACCCAUGUAAAGG

>  <value.observed>
17.3

$$$$
>  <chain>
UAGGUUCUAGUUUCUGCACAUGAGGAUCACCCAUGUUUAGUAAAGGAUAUCACGGUAAGUCGACGUGAGAAGGUUACGUUAGGG

>  <value.observed>
33.6

$$$$

Quick batch: apparent Kd for everything below.
1. UGAGAUAACGCAGGAUAUCAUGCGGCAGUGUAGUGAGAAGGGCGAAUGCAAGGGUCAGACAUGAGGAUCACCCAUGUUCAUAGC
2. CUGUUUGGAGAGGAUAUGUCGGGAAGCUAAUCAACAGAAGGCUCAACAUGAGGAUCACCCAUGUCGGGUGCGUA
3. GAAUGGAAAGGAUAUCGCUGUUCUGACAUGAGGAUCACCCAUGUACGUGUUAGCUUGUUUCGAGAAGGUUCCACUC
4. AGACGGUUACAGGAUAUGACUACUGCUAGAGCAUCAGAAGGGUAUACAUGAGGAUCACCCAUGUCUUCACGGCG

Result block:
[17.2, 16.8, 15.6, 10.1]

====

Test system: MS2 coat protein
protocol.description: apparent Kd, MS2 coat protein; higher = weaker binding; RNA-MaP array; FMN 200 µM where present
recorded.conditions: designed as: OFF switch for flavin mononucleotide; no ligand
Consider the following sequences; for each one, report its apparent Kd.
One number for each entry, in nM.

>  <chain>
AGCAUGCAGUAGGAUAUCGAUCCACAAUAUGAACGAGAAGGACUGACAUGAGGAUCACCCAUGUGCGUCCUAGG

>  <measured.quantity>
apparent Kd

>  <value.observed>
16.7

$$$$
>  <chain>
AGCUAGUCAGGAUAUACGAAAAUGUCAGAGGCUGUGAAGGGACAUGAGGAUCACCCAUGUAGAAGGGACUAGCA

>  <measured.quantity>
apparent Kd

>  <value.observed>
96.8

$$$$
>  <chain>
GGAGAGGACAGAGGAUAUACGUGCUAGAGAUACUAGCAAAAUUUCCUCACAUGAGGAUCACCCAUGUAGAAGGCUGUCCUAUCG

>  <measured.quantity>
apparent Kd

>  <value.observed>
16.6

$$$$
>  <chain>
GGAGAUACAUGAGGAUCACCCAUGUAGGAUAUCGGGCCCAUAUAUGGCGAAAGCCAUAUAUGGGCCGAGAAGGGCGUACACACC

>  <measured.quantity>
apparent Kd

>  <value.observed>
7.63

$$$$
>  <chain>
CUAUUGGCAGGAUAUGCUUUUUUUGACAUGAGGAUCACCCAUGUGAUGCAUUUUGGGUUUGCAGAAGGGCCUGAGU

>  <measured.quantity>
apparent Kd

>  <value.observed>
74.3

$$$$

Quick batch: apparent Kd for everything below.
1. CGUCAGUGAGGAUAUGGUGUCGUUUACAUGAGGAUCACCCAUGUUUCAUGGGACUAGAGACUAGAAGGUACUGACG
2. AAAAAGGCAGGAUAUACAAAACAGGGAAACCUGAAAAGGAAACAUGAGGAUCACCCAUGUAGAAGGGCCAAGAA

Result block:
[97.4, 24.9]
